System: 556581-035-R-J1-PDC complex spheroid growth
test protocol: Anticancer human tumor 556581-035-R-J1-PDC patient-derived ovarian carcinoma cell line growth inhibition [AhR]
protocol conditions: curve of first compound; second compound 3.16 µM
pIC50: −log10 of the molar value.
assay endpoint: pIC50

compound	system	data value
CC1COCCN1c1cc(C2(S(C)(=N)=O)CC2)nc(-c2ccnc3[nH]ccc23)n1 (stereo not drawn) + Cc1cncc(-c2nc(NCCc3c[nH]c4ccccc34)c3ncn(C(C)C)c3n2)c1	556581-035-R-J1-PDC complex spheroid growth	< 5.00
Nc1ccccc1NC(=O)c1ccc(CNC(=O)OCc2cccnc2)cc1 + Cc1cncc(-c2nc(NCCc3c[nH]c4ccccc34)c3ncn(C(C)C)c3n2)c1	556581-035-R-J1-PDC complex spheroid growth	5.71

For the next question, use this compound.
Missing value: pIC50, 556581-035-R-J1-PDC complex spheroid growth, entry COc1ccc([C@@H](O)c2cc(-c3ncnc4cc(N5CCOCC5)ccc34)c(F)cc2Cl)nn1 + CC(CO)NC(=O)c1cc(-c2ccc(Cl)cc2)nn(-c2cnn(C)c2)c1=O . Fill in?
< 5.00

----------
Below is a list of entries, each paired with its recorded viability, T/C value.
System: 556581-035-R-J1-PDC complex spheroid growth
test protocol: Anticancer human tumor 556581-035-R-J1-PDC cell line growth inhibition [AhR];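 on viability, T/C: compound exposure lasted 7 days; 100% = DMSO vehicle control growth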
protocol conditions: second compound 0.1 µM; first compound 0.00316 µM; stronger effect = lower value
The figure you give is taken to be in %; do not add the unit.

Would you please look over these solved cases?
compound	viability, T/C [%]
Cn1ncnc1C1c2n[nH]c(=O)c3cc(F)cc(c23)NC1c1ccc(F)cc1 (configuration not stated) + CC(CO)NC(=O)c1cc(-c2ccc(Cl)cc2)nn(-c2cnn(C)c2)c1=O	101
Nc1ncn(C2CC(O)C(CO)O2)c(=O)n1 (configuration not stated) + Cc1cncc(-c2nc(NCCc3c[nH]c4ccccc34)c3ncn(C(C)C)c3n2)c1	97.2
CC1COCCN1c1cc(-c2ccnn2C)c2ccnc(-c3ccn[nH]3)c2n1 (configuration not stated) + CC(CO)NC(=O)c1cc(-c2ccc(Cl)cc2)nn(-c2cnn(C)c2)c1=O	106
CC[C@@]1(O)C(=O)OCc2c1cc1n(c2=O)Cc2cc3c(CN(C)C)c(O)ccc3nc2-1 + CC(CO)NC(=O)c1cc(-c2ccc(Cl)cc2)nn(-c2cnn(C)c2)c1=O	90.4
CC[C@@]1(O)C(=O)OCc2c1cc1n(c2=O)Cc2cc3c(CN(C)C)c(O)ccc3nc2-1 + Cc1cncc(-c2nc(NCCc3c[nH]c4ccccc34)c3ncn(C(C)C)c3n2)c1	105
CC[C@@]1(O)C(=O)OCc2c1cc1n(c2=O)Cc2cc3c(CN(C)C)c(O)ccc3nc2-1 + Cc1ccccc1N=Nc1ccc(NC(=O)c2ccnn2C)c(C)c1	91.5

Entry Nc1ncn(C2CC(O)C(CO)O2)c(=O)n1 (configuration not stated) + Cc1ccccc1N=Nc1ccc(NC(=O)c2ccnn2C)c(C)c1 has what viability, T/C?
95.9

Entry CC1COCCN1c1cc(-c2ccnn2C)c2ccnc(-c3ccn[nH]3)c2n1 (configuration not stated) + Cc1ccccc1N=Nc1ccc(NC(=O)c2ccnn2C)c(C)c1 has what viability, T/C?
104

----------
Tested on: 556581-035-R-J1-PDC complex spheroid growth
test protocol: Anticancer human tumor 556581-035-R-J1-PDC cell line growth inhibition [AhR];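 on viability, T/C: compound exposure lasted 7 days; 100% = DMSO vehicle control growth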
protocol conditions: second compound 10 µM; first compound 0.3 µM; stronger effect = lower value
Below is a list of entries, each paired with its recorded viability, T/C value.

Would you please look over these solved cases?
compound	system	viability, T/C
CCc1c2c(nc3ccc(O)cc13)-c1cc3c(c(=O)n1C2)COC(=O)[C@]3(O)CC + Cc1cncc(-c2nc(NCCc3c[nH]c4ccccc34)c3ncn(C(C)C)c3n2)c1	556581-035-R-J1-PDC complex spheroid growth	9.08%
CC(C)CC(NC(=O)C(Cc1ccccc1)NC(=O)c1cnccn1)B(O)O (stereo not drawn) + Cc1ccccc1N=Nc1ccc(NC(=O)c2ccnn2C)c(C)c1	556581-035-R-J1-PDC complex spheroid growth	0.28%

Entry O=C(C=Cn1cnc(-c2cc(C(F)(F)F)cc(C(F)(F)F)c2)n1)NNc1cnccn1 + Cc1ccccc1N=Nc1ccc(NC(=O)c2ccnn2C)c(C)c1 has what viability, T/C?
82.4%

Every entry's value here was drawn from PubChem BioAssay AID1918999.
